B1: HDV Ribozyme (parent)
chain: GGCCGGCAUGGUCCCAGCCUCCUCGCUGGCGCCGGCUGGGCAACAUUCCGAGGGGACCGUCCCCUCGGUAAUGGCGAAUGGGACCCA

Variants of: B1
experiment.notes: self-cleavage, relative activity (ratio to wild type); higher = more cleavage; co-transcriptional
endpoint.name: self-cleavage
// keep it numeric: no unit symbol after the value

Examples from the recorded data:
mutation	self-cleavage
G40U C86A	0.682
C14U C84G	0.914
C63A G81U	0.244
G5C G67U	0.248
U27C C58A	0.458

Just so you know, measured self-cleavage for C30G A43U came out at 0.194

Entry C15G G80C , self-cleavage reported as 0.88

# self-cleavage (variant: C19G C36G ) is 0.0264
